Test: soluble fraction after stress (log2 fold change); higher = more stays soluble; pooled small domains, quantitative proteomics
Conditions: stress: 50 degC
Definition: the class of an entry is the range in lower (below -0.6), middle (-0.6 to below -0.02), upper (-0.02 or more) that contains its soluble fraction (log2).

query_sequence=HMNPLPALLRYFRQKAGLTQQDVAAALSISRSGYANYEEGRNIPNIEQAIKLSELLNHDFLYAYTLSS cat=lower
query_sequence=HMLTAPMPGIVTEILVKEGQRVRSGQPLMILEAMKMEHQVTAPKSGQIEKIYFSEGEKVDMGSDLLSIS cat=upper
query_sequence=HMIPDMSLELAMSEQTSKGDLYGDLPNDKLALMFNAISKKVPHTDDHKRKMVAIQTILESRAS cat=middle

Now consider a different sequence.
Incoming: Into which bin does this sequence go? HMENLTLVIGNKLKNIRNSRNLSLDDVAELTGVSKAMLGQIERGKSNPTVSTLWKISTGLRVSFSSFIDE
Outgoing: lower

###

Test: soluble fraction after stress (log2 fold change); higher = more stays soluble; pooled small domains, quantitative proteomics
Details: stress: 50 degC
readout: soluble fraction (log2)
// no unit, no text: just the number

Field: example entries. Status: answers known.
query_sequence=HMEEEPALLRDLLAKTLEFGLIPQLSHHPALADRTQQLASAVRAAGSASALRNAAASLKSLWIDVDQ val=-0.0318
query_sequence=HMRITTKNYFKAISEVGFENLPEVLKKSHLVIEEKTNKGNDWGIYENDAEAKKVFDLAFDKLEEFIDRKED val=0.45

Incoming: Given the sequence HMRIVQTDYRNFLSQVESGAVRSVQIDETQIRYTALDSGGKEIVYNTGKVDDPGLVNRLYDAGVEFSQVIP , what is its reported soluble fraction (log2)?
Outgoing: 0.0657

Incoming: Given the sequence HMTGREIDQLFSVVNDLKAKGVGMVFISHHLDEIARIADSVSVLRDGGFVAEVPASTPEKKLVTLMVGRDI , what is its reported soluble fraction (log2)?
Outgoing: -0.208

Incoming: Given the sequence HMTEKEEERTEDLNYYRLNLISMLKSSYPEYLDDEEFISNRSQEAAEAFEDAVRSGSNYLDASAESNRTLY , what is its reported soluble fraction (log2)?
Outgoing: -0.362

Incoming: Given the sequence HMRNISLSLRWHSGEWTADRLKSEVLALPGAMDMTVFEPQSQAYLRVEQGFDTKLLPAGIDVH , what is its reported soluble fraction (log2)?
Outgoing: -0.927

Incoming: Given the sequence HMRESPYRRVAKFLLLIGTAEAAKIVSRLDQDQVEKVMLELSGIRSVPRDEATVILAEFESLLQQAR , what is its reported soluble fraction (log2)?
Outgoing: -1.47

Incoming: Given the sequence HMRRSDLVTQGDEILKRLQWNQQQAKDFLNQHLKASSRQQLTDEQLLNFNMLLEEQLVKSME , what is its reported soluble fraction (log2)?
Outgoing: 0.103

###

Test: soluble fraction after stress (log2 fold change); higher = more stays soluble; pooled small domains, quantitative proteomics
Conditions: stress: 50 degC
Catalogue of soluble fraction (log2) readings, one per entry.
// no unit, no text: just the number

Field: example entries. Status: answers known.
query_sequence=HMTARPTLEKLKYMIHEAGITENSLKVIVATKGHYGLDADISTYSDDFITRWIIPNWTKIVQTISNNK val=-0.348
query_sequence=HMDFFVLVGAYKTPDEAETIRAKIAFSGLDSSVSHGNDGRYRVRIGPFHSEGDARKAQSTLRANDIPGQII val=-0.0926
query_sequence=HMSSGKTGTITLQPKQTVYGITKQYKISEADLRKLNPQLDSNLKIGDKITLPLDNIQRYSDSSSNVAQT val=0.211
query_sequence=HMNQAIIVPDVKGLPLEEATTFFENNDLRYTVIDSVYTKDVPPGAIYEMVPGAGSKVKEGRIIFVTLNAR val=-0.314
query_sequence=HMNKAYLTVADMKKDKSLKNGDVVRTLGYYGYNDGDGAVYQIKDSHPEDYHIRLDNGLDAEQINY val=0.012

Incoming: Given the sequence HMADKGTITNQQEKILKALILFPEGASIEEIQKAADLGIDKRQFQRRLNTLIESGQINRTGKSRGTKYHTI , what is its reported soluble fraction (log2)?
Outgoing: 0.0555

Incoming: Given the sequence HMDRWSLLTLTTLAGGTLRFTELKRAIGDISQRMLAQTLRTLEREGYVSRKVYATIPPKVEYRLTALGQSL , what is its reported soluble fraction (log2)?
Outgoing: -3.05

Incoming: Given the sequence HMTKMTPNRQLVLSVLQSSGKPLSAYELLDRLREQGTQWQPPTAYRALDYLVEQGLAHYLQSIQKYV , what is its reported soluble fraction (log2)?
Outgoing: -1.1

Incoming: Given the sequence HMTRKQTIYEFLRRMKSQHGLDAVYSTEEIANAVGVSRANVSSDLNRLFEEQLVEKLPGWPVKYRA , what is its reported soluble fraction (log2)?
Outgoing: 0.0186

###

Experiment: soluble fraction after stress (log2 fold change); higher = more stays soluble; pooled small domains, quantitative proteomics
Conditions: stress: 50 degC
Definition: the class of an entry is the range in lo: < -1; med: ≥ -1 and < -0.2; hi: ≥ -0.2 that contains its soluble fraction (log2).

query_sequence=HMTELLTPKQRQVFELALREGYYDVPRRTSITEMARLLGVAKSTLSAQMHRMEATVMSTFAEEIRKQ cat=lo
query_sequence=HMAKLTPDQQELRAIRIELQMSQPDFADAININVPRLSSYEYGRTAGVPTSIMEAARELKRSMSR cat=med
query_sequence=HMAIPTTDSDKATDAQIKQIKLLGDIHPNLKLDAWLERNHVTWETLTREQAGNMMKAIKNKYGD cat=hi
query_sequence=HMLKSGSAVAQARDVILEKGVPVHINEILDALGKGDTREAKASLTSSLAAYVRRGEIFTRPAPNTFGLVEL cat=med
query_sequence=HMQKADFDYGDYVDLGLAMGRQSRQLREAVGIKLGIGYANSKRFYQRLQTFGISLAELKQAVEEAENDQQN cat=med

Incoming: Into which bin does this sequence go? HMGKVTILSNPVKDALVIMGLHNAETIDVRLFDNTGRLVMQGSQSRMDISSLSPGLYILQVNGKILKVIK
Outgoing: lo

Incoming: Into which bin does this sequence go? HMKTGTTGLIGEIGVVKKALTPEGKVFVHGELWRAVSKTASPEGTLVQVIKINNLVLEVEKV
Outgoing: lo

Incoming: Into which bin does this sequence go? HMATEWLSSKEAAQRLGVSAATLYAYVSRGLLRSEGSSGQRERRYRADDVAQLRRRREVGRKAESIAASTL
Outgoing: med

Incoming: Into which bin does this sequence go? HMKDLIGEAKAKELALGHAKLSASDVTFIHVELDWENGRRVYDVEFYSGAKEYDYEIDAKTGEIVSFDY
Outgoing: lo

Incoming: Into which bin does this sequence go? HMISTVFYVDVKGEVHHPGVYQMKAENRVKDLIEAAGGFTPLADDQKLNLAQLLEDQMVIVVPKKGEEV
Outgoing: hi

Incoming: Into which bin does this sequence go? HMSSEQRSVLFPNLAETDKVAVIEALMAAGVNARVDSASGRVTVPSGDYYNSRAILAAQGLPTS
Outgoing: hi

Incoming: Into which bin does this sequence go? HMNVDSLIGKKARVLEDIDNLNAKGQVSIDGMEWTARSEDGSEIKKDALVEVVAIEGVKAIVKQ
Outgoing: hi

###

Test: soluble fraction after stress (log2 fold change); higher = more stays soluble; pooled small domains, quantitative proteomics
Conditions: stress: 50 degC
Quick rule for you: soluble fraction (log2) at 0.02 or higher means t, lower means f.

Sample answers from the record:
query_sequence=HMAGEDPANLELMRLMDEEYMEHPTKGVLGMVDFLRALGILTGPKRVRRLLRKMGIMAIYPK cat=f
query_sequence=HMAANKIDEDRNTELLQVIQNKFPDADAATKKSVKEIMKEHDIPNFKNADDIPTAVLEQIVKVLNQ cat=t
query_sequence=HMPAEGWEASGDTWRYRQKDGSYITNAWVQDTDGKWYYFDESSLMVRNQTTSDGYYVGEDGVWTET cat=f
query_sequence=HMGNNSIDIKDVIYNLVEISQLQAFDIVKHFKTWENLVNKPDELDTVIDGDSDIVDRIKYKIKSLS cat=t
query_sequence=HMELPPLEPIDRILVVQQPINIREQPGVLAKKIGRVSSGETLTILAKVSGQDWYFVETDNGGRGYVFKRV cat=f
query_sequence=HMDRSAQVLFLEHARSRLPQRIQWAEELAELLSIGIDSAYRRIRGETALTFNEAVSVSRKYDISLDYLFK cat=f
query_sequence=HMSYGKVQFVIDAKDAVLSIDGKETDYEKPVKLTYGSHTITVYSSDYDTWKRNLYVNSEKSTVVINLA cat=f
query_sequence=HMIEQEQAFLEQVLKKYSQEELVLTVGSRTLVKYSAGQLERLLEHYPHVRLASSPVNGEAGFLLSRG cat=f

Incoming: Please check the record HMSTASPEELRQTPERRRLIEYLREHGGHGRTSEIAAALGIDDSTASRLLRRLADNGLIVRTQYGEYTLLQ and state if its soluble fraction (log2) is at or above 0.02.
Outgoing: f

Incoming: Please check the record HMSNTPHSREVLLEMDAVRRLLAVGEEKGEVDRADLQGAFEEAELGRGDLDGVLSILREYDVPLAR and state if its soluble fraction (log2) is at or above 0.02.
Outgoing: t

Incoming: Please check the record HMRPTYRTRLEVLINNPAISGRDLDFAQSLLSYYERKGRLSAGRVKWVTTLEERYSPENLAASAAK and state if its soluble fraction (log2) is at or above 0.02.
Outgoing: f

Incoming: Please check the record HMVTEKNALTIEIEDLTKRFGNQRESLLPILQEVQLKHGHISDFAQQEIARLLDIHPVEVYGVVTFFSFLS and state if its soluble fraction (log2) is at or above 0.02.
Outgoing: f

Incoming: Please check the record HMDDFVEIDGKKYEIDMSFDNILRLFDLLKDKSLNDVTKIETGLIMLIDDSLDDYDTEEKADIFVQIF and state if its soluble fraction (log2) is at or above 0.02.
Outgoing: f

Incoming: Please check the record HMTNPPITTEARNLVVEQLKELNALHPEKARELADSYKKEFNVPKVIGHITEARHGEFLALAISKIDES and state if its soluble fraction (log2) is at or above 0.02.
Outgoing: f

Incoming: Please check the record HMGSKKITIYVSGEVKNPGIVTLNSDQRLASAVEKLGGVTENADMNNINLAMKLEDEMHYIIPKKGEK and state if its soluble fraction (log2) is at or above 0.02.
Outgoing: t

Incoming: Please check the record HMVITQVSTTQTDTTFQYHKVKPKETLFSISRLYEVSIDEIKTINPALNSRELMAGELLKLPIK and state if its soluble fraction (log2) is at or above 0.02.
Outgoing: f

Incoming: Please check the record HMSDDSYLVALAEAYKNATSWDIRRQVLSIMTGVSSYKEISRYIPGLTQYRLSISNLHRLQYGRAAPVP and state if its soluble fraction (log2) is at or above 0.02.
Outgoing: t

Values from the domain aggregation screens of Martell et al. (2025)
